Each entry below lists one item and its recorded MIC value.
Tested on: E. coli R+TEM
test: Serial dilution test in the microtiter system, MIC against E. coli R+TEM (β-lactamase carrier)
Assay type: cell-based
applied.conditions: Escherichia coli, read-out: MIC, E. coli R + TEM
Return type: number; implicit unit µg/mL.

compound	MIC (µg/mL)
Cn1nnnc1SCC1=C(C(=O)O)N2C(=O)[C@@H](NC(=O)[C@H](NC(=O)Nc3cnc(NCCCO)nc3O)c3ccc(O)cc3)[C@H]2SC1 [E]	16
CNS(=O)(=O)c1ccc(Nc2ncc(NC(=O)N[C@@H](C(=O)N[C@@H]3C(=O)N4C(C(=O)O)=C(COC(C)=O)CS[C@H]34)c3ccc(O)cc3)c(O)n2)cc1 [H]	16
Cn1nnnc1SCC1=C(C(=O)O)N2C(=O)[C@@H](NC(=O)[C@H](NC(=O)Nc3cnc(NC4CCC(O)CC4)nc3O)c3ccc(O)cc3)[C@H]2SC1 (stereo partly drawn) [C]	8
CNc1nnc(SCC2=C(C(=O)O)N3C(=O)[C@@H](NC(=O)[C@H](NC(=O)Nc4cnc(Nc5ccc(S(=O)(=O)NC)cc5)nc4O)c4ccc(O)cc4)[C@H]3SC2)s1 [J]	8
Cc1nnc(SCC2=C(C(=O)O)N3C(=O)[C@@H](NC(=O)[C@H](NC(=O)Nc4cnc(NC5CCC(O)CC5)nc4O)c4ccc(O)cc4)[C@H]3SC2)s1 (stereo partly drawn) [G]	16
Cc1nnc(SCC2=C(C(=O)O)N3C(=O)[C@@H](NC(=O)Cn4cnnn4)[C@H]3SC2)s1 [Cephazolin, reference compound]	4
CC(=O)Nc1nnc(SCC2=C(C(=O)O)N3C(=O)[C@@H](NC(=O)[C@H](NC(=O)Nc4cnc(NC5CCC(O)CC5)nc4O)c4ccc(O)cc4)[C@H]3SC2)s1 (stereo partly drawn) [D]	16
Cn1nnnc1SCC1=C(C(=O)O)N2C(=O)[C@@H](NC(=O)[C@H](NC(=O)Nc3cnc(Nc4ccc(S(N)(=O)=O)cc4)nc3O)c3ccc(O)cc3)[C@H]2SC1 [L]	2

// assay E. coli R+TEM, entry Cn1nnnc1SCC1=C(C(=O)O)N2C(=O)[C@@H](NC(=O)C(NC(=O)Nc3cnc(NC4CCC(O)CC4)nc3O)c3cccs3)[C@H]2SC1 (stereo partly drawn) [F] , MIC value = 16

// assay E. coli R+TEM, entry CCCNc1ncc(NC(=O)N[C@@H](C(=O)N[C@@H]2C(=O)N3C(C(=O)O)=C(CSc4nnnn4C)CS[C@H]23)c2ccc(O)cc2)c(O)n1 [B] , MIC value = 8

// assay E. coli R+TEM, entry CNS(=O)(=O)c1ccc(Nc2ncc(NC(=O)N[C@@H](C(=O)N[C@@H]3C(=O)N4C(C(=O)O)=C(CSc5nnc(C)s5)CS[C@H]34)c3ccc(O)cc3)c(O)n2)cc1 [N] , MIC value = 4

###

System: Pseudomonas aeruginosa Walter
test: In vivo test in mice against experimental Pseudomonas infection
Design: species or system Female NMRI mice
applied.conditions: Pseudomonas aeruginosa, sc, 168 h; subcutaneous; per dose; dose at which 50% of the animals survived; observation 7 days
The threshold is 10 mg/kg. Values of ED50 beneath it are tagged T; values meeting or exceeding it are tagged F.

Task item: Consider Cn1nnnc1SCC1=C(C(=O)O)N2C(=O)[C@@H](NC(=O)[C@H](NC(=O)Nc3cnc(C4CC4)nc3O)c3ccc(O)cc3)[C@H]2SC1 [A] . Does its ED50 lie strictly below 10 mg/kg?
Reply: F

Task item: Consider Cn1nnnc1SCC1=C(C(=O)O)N2C(=O)[C@@H](NC(=O)[C@H](NC(=O)Nc3cnc(NC4CCC(O)CC4)nc3O)c3ccc(O)cc3)[C@H]2SC1 (stereo partly drawn) [C] . Does its ED50 lie strictly below 10 mg/kg?
Reply: T

Task item: Consider CNS(=O)(=O)c1ccc(Nc2ncc(NC(=O)N[C@@H](C(=O)N[C@@H]3C(=O)N4C(C(=O)O)=C(CSc5nnnn5C)CS[C@H]34)c3ccc(O)cc3)c(O)n2)cc1 [K] . Does its ED50 lie strictly below 10 mg/kg?
Reply: T

Task item: Consider Cn1nnnc1SCC1=C(C(=O)O)N2C(=O)[C@@H](NC(=O)[C@H](NC(=O)Nc3cnc(NCCCO)nc3O)c3ccc(O)cc3)[C@H]2SC1 [E] . Does its ED50 lie strictly below 10 mg/kg?
Reply: F

Task item: Consider CCCNc1ncc(NC(=O)N[C@@H](C(=O)N[C@@H]2C(=O)N3C(C(=O)O)=C(CSc4nnnn4C)CS[C@H]23)c2ccc(O)cc2)c(O)n1 [B] . Does its ED50 lie strictly below 10 mg/kg?
Reply: F

Task item: Consider Cn1nnnc1SCC1=C(C(=O)O)N2C(=O)[C@@H](NC(=O)[C@H](NC(=O)Nc3cnc(Nc4ccc(S(N)(=O)=O)cc4)nc3O)c3ccc(O)cc3)[C@H]2SC1 [L] . Does its ED50 lie strictly below 10 mg/kg?
Reply: T

###

Tested on: Pseudomonas aeruginosa Hamburgensis
test: Serial dilution test in the microtiter system, MIC against Pseudomonas aeruginosa Hamburgensis
Type: cell-based
applied.conditions: minimum inhibitory concentration, 37° C., 18 to 20 hours, read-out: MIC, Pseud. aerug. Hbg.
Each entry below lists one item and its recorded MIC value.

Would you please look over these solved cases?
compound	MIC
CC(=O)Nc1nnc(SCC2=C(C(=O)O)N3C(=O)[C@@H](NC(=O)[C@H](NC(=O)Nc4cnc(NC5CCC(O)CC5)nc4O)c4ccc(O)cc4)[C@H]3SC2)s1 (stereo partly drawn)	8 µg/mL
CNS(=O)(=O)c1ccc(Nc2ncc(NC(=O)N[C@@H](C(=O)N[C@@H]3C(=O)N4C(C(=O)O)=C(CSc5nnc(C)s5)CS[C@H]34)c3ccc(O)cc3)c(O)n2)cc1	4 µg/mL

// assay Pseudomonas aeruginosa Hamburgensis, entry `Cn1nnnc1SCC1=C(C(=O)O)N2C(=O)[C@@H](NC(=O)[C@H](NC(=O)Nc3cnc(C4CC4)nc3O)c3ccc(O)cc3)[C@H]2SC1` , MIC value = 8 µg/mL

// assay Pseudomonas aeruginosa Hamburgensis, entry Cn1nnnc1SCC1=C(C(=O)O)N2C(=O)[C@@H](NC(=O)[C@H](NC(=O)Nc3cnc(NC4CCC(O)CC4)nc3O)c3ccc(O)cc3)[C@H]2SC1 (stereo partly drawn) , MIC value = 4 µg/mL

// assay Pseudomonas aeruginosa Hamburgensis, entry Cc1nnc(SCC2=C(C(=O)O)N3C(=O)[C@@H](NC(=O)Cn4cnnn4)[C@H]3SC2)s1 [Cephazolin, reference compound] , MIC value = > 100 µg/mL

// assay Pseudomonas aeruginosa Hamburgensis, entry `CCCNc1ncc(NC(=O)N[C@@H](C(=O)N[C@@H]2C(=O)N3C(C(=O)O)=C(CSc4nnnn4C)CS[C@H]23)c2ccc(O)cc2)c(O)n1` , MIC value = 4 µg/mL

###

// each record: one item and its log10(MIC) for Proteus rettgeri
All values: base-10 log of MIC in µg/mL.

Would you please look over these solved cases?
compound	log10(MIC)
CO/N=C(\C(=O)N[C@@H]1C(=O)N2C(C(=O)O)=C(COC(N)=O)CS[C@H]12)c1ccco1 [Cefuroxim, reference compound]	0.30
Cn1nnnc1SCC1=C(C(=O)O)N2C(=O)[C@@H](NC(=O)[C@H](NC(=O)Nc3cnc(NC4CCC(O)CC4)nc3O)c3ccc(O)cc3)[C@H]2SC1 (stereo partly drawn)	0.00
Cn1nnnc1SCC1=C(C(=O)O)N2C(=O)[C@@H](NC(=O)[C@H](NC(=O)Nc3cnc(NCCCO)nc3O)c3ccc(O)cc3)[C@H]2SC1	0.00
CNS(=O)(=O)c1ccc(Nc2ncc(NC(=O)N[C@@H](C(=O)N[C@@H]3C(=O)N4C(C(=O)O)=C(CSc5nnnn5C)CS[C@H]34)c3ccc(O)cc3)c(O)n2)cc1	-0.60
CC(=O)Nc1nnc(SCC2=C(C(=O)O)N3C(=O)[C@@H](NC(=O)[C@H](NC(=O)Nc4cnc(NC5CCC(O)CC5)nc4O)c4ccc(O)cc4)[C@H]3SC2)s1 (stereo partly drawn)	0.90

The record that follows has no log10(MIC) shown yet.
Reported log10(MIC) ( `CNS(=O)(=O)c1ccc(Nc2ncc(NC(=O)N[C@@H](C(=O)N[C@@H]3C(=O)N4C(C(=O)O)=C(CSc5nnc(C)s5)CS[C@H]34)c3ccc(O)cc3)c(O)n2)cc1` ) = -0.30

###

Test system: E. coli R+TEM
test: Serial dilution test in the microtiter system, MIC against E. coli R+TEM (β-lactamase carrier)
Type: cell-based
applied.conditions: Escherichia coli, read-out: MIC, E. coli R + TEM
readout.label: MIC (µg/mL)
Return type: number; implicit unit µg/mL.

Would you please look over these solved cases?
compound	measured.on	readout.label	measured.number
Cn1nnnc1SCC1=C(C(=O)O)N2C(=O)[C@@H](NC(=O)C(NC(=O)Nc3cnc(Nc4ccc(S(N)(=O)=O)cc4)nc3O)c3cccs3)[C@H]2SC1 (stereo partly shown)	E. coli R+TEM	MIC	4
CNS(=O)(=O)c1ccc(Nc2ncc(NC(=O)N[C@@H](C(=O)N[C@@H]3C(=O)N4C(C(=O)O)=C(CSc5nnnn5C)CS[C@H]34)c3ccc(O)cc3)c(O)n2)cc1	E. coli R+TEM	MIC	2
Cn1nnnc1SCC1=C(C(=O)O)N2C(=O)[C@@H](NC(=O)[C@H](NC(=O)Nc3cnc(C4CC4)nc3O)c3ccc(O)cc3)[C@H]2SC1	E. coli R+TEM	MIC	8

The record that follows has no MIC shown yet.
// assay E. coli R+TEM, entry CO/N=C(\C(=O)N[C@@H]1C(=O)N2C(C(=O)O)=C(COC(N)=O)CS[C@H]12)c1ccco1 [Cefuroxim, reference compound] , MIC value = 4
